Below is a list of entries, each paired with its recorded pEC50 value.
biological target: Sodium-dependent dopamine transporter (Homo sapiens); assay: Enhancing of [3H]mazindol binding to recombinant human DAT expressed in HEK293 cell membranes preincubated for 10 mins followed by radioligand addition measured after 90 mins by micro beta scintillation counting analysis; details: read-out: EC50
Sequence (Q01959 whole entry): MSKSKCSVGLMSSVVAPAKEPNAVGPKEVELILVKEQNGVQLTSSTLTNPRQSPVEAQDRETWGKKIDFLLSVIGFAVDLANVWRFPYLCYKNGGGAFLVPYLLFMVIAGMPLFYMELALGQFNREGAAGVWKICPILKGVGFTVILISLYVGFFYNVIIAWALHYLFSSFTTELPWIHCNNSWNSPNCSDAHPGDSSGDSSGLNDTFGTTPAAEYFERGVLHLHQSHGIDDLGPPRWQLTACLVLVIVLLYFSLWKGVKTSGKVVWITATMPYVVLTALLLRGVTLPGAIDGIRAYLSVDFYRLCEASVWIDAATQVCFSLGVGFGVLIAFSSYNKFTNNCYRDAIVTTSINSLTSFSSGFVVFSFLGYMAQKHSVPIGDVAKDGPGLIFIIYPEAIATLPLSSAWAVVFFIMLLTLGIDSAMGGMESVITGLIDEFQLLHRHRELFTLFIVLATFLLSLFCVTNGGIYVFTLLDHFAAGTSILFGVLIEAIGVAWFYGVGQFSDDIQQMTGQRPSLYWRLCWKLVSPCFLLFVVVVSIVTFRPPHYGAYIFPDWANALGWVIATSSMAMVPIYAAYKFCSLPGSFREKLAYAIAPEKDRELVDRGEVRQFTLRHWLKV
pEC50: −log10 of the molar value.

| smiles.notation | pEC50 |
| --- | --- |
| CCOC(=O)[C@@]12C[C@@H]1[C@@H](n1cnc3c(NC)nc(C#Cc4ccc(Cl)s4)nc31)[C@H](O)[C@@H]2O | 6.57 |
| CNC(=O)[C@@]12C[C@@H]1[C@@H](n1cnc3c(NC)nc(C#Cc4ccc(Cl)s4)nc31)[C@H](O)[C@@H]2O | 6.88 |
| CCCOC(=O)[C@@]12C[C@@H]1[C@@H](n1cnc3c(NC)nc(C#Cc4ccc(Cl)s4)nc31)[C@H](O)[C@@H]2O | 6.27 |
| CNC(=O)[C@@]12C[C@@H]1[C@@H](n1cnc3c(NC)nc(C#Cc4ccc(Br)s4)nc31)[C@H](O)[C@@H]2O | 6.06 |

###

molecular target: Sodium-dependent noradrenaline transporter (Homo sapiens); assay: Inhibition of [3H]mazindol binding to recombinant human NET expressed in HEK293 cell membranes preincubated for 10 mins followed by radioligand addition measured after 90 mins by micro beta scintillation counting analysis

| compound | Ki, nM |
| --- | --- |
| OC1(c2ccc(Cl)cc2)c2ccccc2C2=NCCN21 (racemic) [MAZINDOL] | 13.5 |

###

biological target: UniProt:Q01959; assay: Enhancing of [3H]WIN35,428 binding to recombinant human DAT expressed in HEK293 cell membranes at 10 uM pre-incubated for 10 mins before radioligand addition and measured 90 mins after radioligand addition by micro beta scintillation counting analysis relative to control

| smiles.notation | Activity |
| --- | --- |
| CNc1nc(C#Cc2ccc(Cl)s2)nc2c1ncn2[C@@H]1O[C@H](C(=O)OC)[C@@H](O)[C@H]1O | 220% |
| CCCCOC(=O)[C@@]12C[C@@H]1[C@@H](n1cnc3c(NC)nc(C#Cc4ccc(Cl)s4)nc31)[C@H](O)[C@@H]2O | 285% |
| CNc1nc(C#Cc2ccc(Cl)s2)nc2c1ncn2[C@H]1[C@H](O)[C@H](O)[C@]2(C(=O)O)C[C@H]12 | 50% |

###

Target: Sigma intracellular receptor 2 (Rattus norvegicus)
Sequence (Q5U3Y7 whole entry): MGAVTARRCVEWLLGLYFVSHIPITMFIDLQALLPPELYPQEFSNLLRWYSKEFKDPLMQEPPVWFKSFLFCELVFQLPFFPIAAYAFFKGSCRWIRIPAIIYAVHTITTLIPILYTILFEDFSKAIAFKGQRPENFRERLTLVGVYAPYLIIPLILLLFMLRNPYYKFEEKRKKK
Test: Displacement of [3H]DTG from rat sigma 2 receptor

| smiles.notation | Ki / µM |
| --- | --- |
| CNc1nc(C#Cc2ccc(Cl)s2)nc2c1ncn2[C@H]1[C@H](O)[C@H](O)[C@]2(C(=O)OCCc3ccccc3)C[C@H]12 | 5.9 |
| CCOC(=O)[C@@]12C[C@@H]1[C@@H](n1cnc3c(NC)nc(C#Cc4ccc(Cl)s4)cc31)[C@H](O)[C@@H]2O | 1.9 |

###

Biological target: Adenosine receptor A3 (Mus musculus)
Sequence (Q61618 whole entry): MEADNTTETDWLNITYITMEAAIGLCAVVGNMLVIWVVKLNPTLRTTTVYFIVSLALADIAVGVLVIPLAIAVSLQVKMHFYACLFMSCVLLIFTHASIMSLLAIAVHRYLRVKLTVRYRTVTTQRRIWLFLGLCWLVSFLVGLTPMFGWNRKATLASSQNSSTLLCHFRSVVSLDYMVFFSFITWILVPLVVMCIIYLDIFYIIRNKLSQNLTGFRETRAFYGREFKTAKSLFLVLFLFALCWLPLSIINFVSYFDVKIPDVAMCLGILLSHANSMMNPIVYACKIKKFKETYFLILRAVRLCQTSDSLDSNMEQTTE
Test: Displacement of [125I]N6-(4-amino-3-iodobenzyl)adenosine-5'-N-methyluronamide from mouse A3AR expressed in HEK293T cells pre-incubated for 10 mins before radioligand addition and measured 90 mins after radioligand addition by micro beta scintillation counting analysis relative to control
Type: cell-based
Below is a list of entries, each paired with its recorded Ki value.
observed.property: Ki (µM)

| smiles.notation | quantitative.readout |
| --- | --- |
| CCOC(=O)[C@@]12C[C@@H]1[C@@H](n1cnc3c(NC)nc(C#Cc4ccc(Br)s4)nc31)[C@H](O)[C@@H]2O | 1.8 |
| CNc1nc(C#Cc2ccc(Cl)s2)nc2c1ncn2[C@@H]1O[C@H](C(=O)OC)[C@@H](O)[C@H]1O | 0.034 |

###

molecular target: Sodium-dependent dopamine transporter (Mus musculus); assay: Enhancing of [125I]RTI-55 binding to mouse DAT expressed in HEK293 cells preincubated for 10 mins followed by radioligand addition measured after 90 mins by micro beta scintillation counting analysis
Sequence (Q61327 whole entry): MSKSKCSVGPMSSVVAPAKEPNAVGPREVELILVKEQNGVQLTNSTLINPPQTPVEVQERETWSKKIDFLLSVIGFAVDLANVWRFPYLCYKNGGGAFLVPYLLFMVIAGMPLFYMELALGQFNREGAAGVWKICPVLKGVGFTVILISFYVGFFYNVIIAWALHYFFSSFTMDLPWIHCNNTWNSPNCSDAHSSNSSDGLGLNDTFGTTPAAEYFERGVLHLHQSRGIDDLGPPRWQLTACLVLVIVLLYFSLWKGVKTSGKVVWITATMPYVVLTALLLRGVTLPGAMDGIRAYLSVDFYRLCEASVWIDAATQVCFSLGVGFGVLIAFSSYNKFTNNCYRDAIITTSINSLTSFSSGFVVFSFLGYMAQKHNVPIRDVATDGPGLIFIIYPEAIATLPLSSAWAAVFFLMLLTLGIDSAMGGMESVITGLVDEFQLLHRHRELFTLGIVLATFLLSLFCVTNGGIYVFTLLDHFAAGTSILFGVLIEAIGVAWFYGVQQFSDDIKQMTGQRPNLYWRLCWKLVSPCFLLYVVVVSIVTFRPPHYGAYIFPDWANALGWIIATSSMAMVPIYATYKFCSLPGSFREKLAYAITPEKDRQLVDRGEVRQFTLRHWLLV
pEC50: −log10 of the molar value.

| smiles.notation | target.or.system | pEC50 |
| --- | --- | --- |
| CNC(=O)[C@@]12C[C@@H]1[C@@H](n1cnc3c(NC)nc(C#Cc4ccc(Br)s4)nc31)[C@H](O)[C@@H]2O | Sodium-dependent dopamine transporter (Mus musculus) | 5.96 |
| CNC(=O)[C@@]12C[C@@H]1[C@@H](n1cnc3c(NC)nc(C#Cc4ccc(Cl)s4)cc31)[C@H](O)[C@@H]2O | Sodium-dependent dopamine transporter (Mus musculus) | 5.56 |
| CCOC(=O)[C@@]12C[C@@H]1[C@@H](n1cnc3c(NC)nc(C#Cc4ccc(Cl)s4)nc31)[C@H](O)[C@@H]2O | Sodium-dependent dopamine transporter (Mus musculus) | 5.97 |
| CNc1nc(C#Cc2ccc(Cl)s2)nc2c1ncn2[C@H]1[C@H](O)[C@H](O)[C@]2(C(=O)OC)C[C@H]12 | Sodium-dependent dopamine transporter (Mus musculus) | 6.09 |
| CNC(=O)[C@@]12C[C@@H]1[C@@H](n1cnc3c(NC)nc(C#Cc4ccc(Cl)s4)nc31)[C@H](O)[C@@H]2O | Sodium-dependent dopamine transporter (Mus musculus) | 5.65 |

###

Below is a list of entries, each paired with its recorded EC50 value.
molecular target: Sodium-dependent serotonin transporter (Homo sapiens); assay: Enhancing of [125I]RTI-55 binding to recombinant human SERT expressed in HEK293 cell membranes preincubated for 10 mins followed by radioligand addition measured after 90 mins by micro beta scintillation counting analysis; conditions: read-out: EC50
Sequence (P31645 whole entry): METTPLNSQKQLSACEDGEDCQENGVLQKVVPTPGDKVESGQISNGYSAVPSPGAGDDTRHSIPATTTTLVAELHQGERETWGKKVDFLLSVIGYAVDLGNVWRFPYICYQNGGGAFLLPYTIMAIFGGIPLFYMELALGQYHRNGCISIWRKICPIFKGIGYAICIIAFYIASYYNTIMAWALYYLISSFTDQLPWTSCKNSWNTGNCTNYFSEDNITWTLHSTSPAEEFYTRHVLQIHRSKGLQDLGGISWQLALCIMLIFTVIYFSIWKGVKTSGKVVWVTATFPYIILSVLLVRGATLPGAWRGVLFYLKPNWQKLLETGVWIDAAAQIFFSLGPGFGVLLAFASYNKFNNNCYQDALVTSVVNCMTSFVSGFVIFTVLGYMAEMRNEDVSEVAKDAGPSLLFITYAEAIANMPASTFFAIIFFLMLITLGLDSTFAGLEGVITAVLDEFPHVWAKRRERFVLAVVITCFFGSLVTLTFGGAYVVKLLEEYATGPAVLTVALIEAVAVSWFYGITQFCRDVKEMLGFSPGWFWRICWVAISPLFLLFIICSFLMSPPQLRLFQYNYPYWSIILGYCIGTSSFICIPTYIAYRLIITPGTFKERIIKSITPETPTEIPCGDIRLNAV
observed.property: EC50

| smiles.notation | observed.property | result |
| --- | --- | --- |
| CNC(=O)[C@@]12C[C@@H]1[C@@H](n1cnc3c(NC)nc(C#Cc4ccc(F)c(F)c4)nc31)[C@H](O)[C@@H]2O | EC50 | > 10 µM |
| CCCOC(=O)[C@@]12C[C@@H]1[C@@H](n1cnc3c(NC)nc(C#Cc4ccc(Cl)s4)nc31)[C@H](O)[C@@H]2O | EC50 | > 10 µM |
| CNC(=O)[C@@]12C[C@@H]1[C@@H](n1cnc3c(NC)nc(C#Cc4ccc(Br)s4)nc31)[C@H](O)[C@@H]2O | EC50 | > 10 µM |

###

target: Sodium-dependent noradrenaline transporter (Homo sapiens, UniProt P23975); test: Inhibition of recombinant human NET expressed in HEK293 […] assessed as reduction in [3H]-norepinephrine uptake incubated for 22 mins by micro beta scintillation counting analysis
Sequence (P23975 whole entry): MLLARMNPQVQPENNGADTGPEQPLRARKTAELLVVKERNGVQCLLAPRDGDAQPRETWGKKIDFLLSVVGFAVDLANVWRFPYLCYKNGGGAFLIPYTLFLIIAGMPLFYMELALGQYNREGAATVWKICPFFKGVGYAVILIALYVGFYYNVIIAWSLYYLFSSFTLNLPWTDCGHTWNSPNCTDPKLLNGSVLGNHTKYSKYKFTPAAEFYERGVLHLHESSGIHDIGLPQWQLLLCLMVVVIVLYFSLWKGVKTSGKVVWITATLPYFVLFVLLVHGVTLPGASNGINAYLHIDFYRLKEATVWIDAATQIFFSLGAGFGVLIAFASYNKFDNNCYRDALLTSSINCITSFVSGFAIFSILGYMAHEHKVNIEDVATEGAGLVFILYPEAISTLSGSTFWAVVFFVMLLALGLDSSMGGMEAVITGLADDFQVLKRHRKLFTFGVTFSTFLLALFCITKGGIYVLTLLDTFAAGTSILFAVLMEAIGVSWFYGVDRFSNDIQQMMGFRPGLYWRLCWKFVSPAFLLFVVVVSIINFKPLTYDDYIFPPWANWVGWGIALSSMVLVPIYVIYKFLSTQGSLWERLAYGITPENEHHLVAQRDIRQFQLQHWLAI
observed.property: IC50

| smiles.notation | target.or.system | observed.property | result |
| --- | --- | --- | --- |
| CCCOC(=O)[C@@]12C[C@@H]1[C@@H](n1cnc3c(NC)nc(C#Cc4ccc(Cl)s4)nc31)[C@H](O)[C@@H]2O | Sodium-dependent noradrenaline transporter (Homo sapiens, UniProt P23975) | IC50 | 7.9 µM |
| CNc1nc(C#Cc2ccc(Cl)s2)nc2c1ncn2[C@@H]1O[C@H](C(=O)OC)[C@@H](O)[C@H]1O | Sodium-dependent noradrenaline transporter (Homo sapiens, UniProt P23975) | IC50 | 2.69 µM |
| CCOC(=O)[C@@]12C[C@@H]1[C@@H](n1cnc3c(NC)nc(C#Cc4ccc(Cl)s4)nc31)[C@H](O)[C@@H]2O | Sodium-dependent noradrenaline transporter (Homo sapiens, UniProt P23975) | IC50 | 3.98 µM |
| CNc1nc(C#Cc2ccc(Cl)s2)nc2c1ncn2[C@H]1[C@H](O)[C@H](O)[C@]2(C(=O)OC)C[C@H]12 | Sodium-dependent noradrenaline transporter (Homo sapiens, UniProt P23975) | IC50 | 3.38 µM |
| CNC(=O)[C@@]12C[C@@H]1[C@@H](n1cnc3c(NC)nc(C#Cc4ccc(Cl)s4)cc31)[C@H](O)[C@@H]2O | Sodium-dependent noradrenaline transporter (Homo sapiens, UniProt P23975) | IC50 | 5.06 µM |
